Recorded values, source ChEMBL document CHEMBL1139217.

test: Clearance in Sprague-Dawley rat at 1.6 mg/kg; type: ADME, organism-based; parameters: dose 1.6 mg/kg; conditions: in vivo
measurementKind: clearance (mL/min/kg)
Please respond with the number in mL/min/kg and leave the unit unwritten.

Briefly, clearance measured for CC1=C(C(=O)Nc2ccc3[nH]ncc3c2)C(c2ccc(F)cc2)CC(=O)N1 (stereo unspecified) : 47

---

assay: Volume of distribution in Sprague-Dawley rat at 1.7 mg/kg; format: ADME, organism-based; design: dose 1.7 mg/kg; settings: in vivo, read-out: Vdss
measurementKind: Vd

The measured Vd associated with CC1=C(C(=O)Nc2ccc3[nH]ncc3c2)C(c2ccc3ccccc3c2)CC(=O)N1 (stereo unspecified) [GSK-270822A] reads 1.8 L/kg
